- System: KM12 colon
- protocol-description: NCI-60 one-dose screen, 48 h (100 = growth as untreated, 0 = no growth, -100 = all killed)
- cond: 10 µM unless noted
The panel holds about 83,000 compounds, 20% with a hit somewhere; the sample as a whole holds those more often. Active and inactive are the calls of the source. The calls were made as follows: active = growth percent below 10; inactive = the rest.
Provide the reported growth of each item.

In: Request the reported growth associated with `CCCNNC(=O)c1ccc(CNC(=O)/C=C/c2ccccc2)cc1`
Out: 47.1% [2.5 µM] (inactive)

In: Give its growth value. Item: `C=C(C)[C@@H]1CC[C@]2(C#N)CC[C@]3(C)[C@H](CC[C@@H]4[C@@]5(C)CCCNC(C)(C)[C@@H]5CC[C@]43C)[C@@H]12`
Out: 41% (inactive)

In: Recorded growth for COc1ccc(S(=O)(=O)NC2c3ccccc3CC2O)cc1OC (stereo not given) , please?
Out: 101% (inactive)

In: Quick one: growth of CCCCCC(C)(O)C(C(=O)O)c1ccccc1 (stereo not given) ?
Out: 104% (inactive)

In: Field request: growth | item: `O=c1ccc2c(ccc3ncccc32)o1`
Out: 107% (inactive)
